target: human recombinant GST cleaved CSNK1D (Homo sapiens); construct: GST (cleaved yes); assay: Purified Enzyme Assay (ADP-Glo CSNK1D Kinase Assay); settings: 2 nM CSNK1D; peptide substrate 150 μM; ATP 20 μM; 45 minutes at room temperature
Sequence (P48730 whole entry): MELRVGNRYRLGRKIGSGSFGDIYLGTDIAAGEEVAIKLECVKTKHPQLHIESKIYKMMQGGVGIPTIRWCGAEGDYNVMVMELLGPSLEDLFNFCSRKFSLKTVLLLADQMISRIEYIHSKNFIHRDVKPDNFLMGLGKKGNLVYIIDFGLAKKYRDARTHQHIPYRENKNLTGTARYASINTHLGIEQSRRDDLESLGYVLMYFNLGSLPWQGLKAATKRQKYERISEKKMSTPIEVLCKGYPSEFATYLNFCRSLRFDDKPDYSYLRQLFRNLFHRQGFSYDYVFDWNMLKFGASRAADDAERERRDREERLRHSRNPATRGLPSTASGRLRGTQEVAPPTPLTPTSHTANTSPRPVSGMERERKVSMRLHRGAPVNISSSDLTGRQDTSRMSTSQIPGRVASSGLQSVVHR
pIC50: −log10 of the molar value.
Readout name: pIC50

Molecule	System under test	Readout name	Measured number
CC1(C)CCn2nc(-c3ccc(F)cn3)c(-c3ccnc4[nH]ncc34)c2C1 [Example 50]	human recombinant GST cleaved CSNK1D (Homo sapiens)	pIC50	8.70
COCC1(F)CCc2c(-c3cc(C)nc4[nH]ccc34)c(-c3ccc(F)cn3)nn2C1 (single isomer, unassigned) [Example 299]	human recombinant GST cleaved CSNK1D (Homo sapiens)	pIC50	7.70
[2H]C([2H])([2H])[C@]1(C(F)(F)F)Cn2nc(-c3ccc(F)cn3)c(-c3ccnc4[nH]nc(C)c34)c2CO1 (single isomer, unassigned) [Example 425]	human recombinant GST cleaved CSNK1D (Homo sapiens)	pIC50	6.63
Cc1cc(-c2c(-c3cscn3)nn3c2COC(C)(C)C3)c2cn[nH]c2n1 [Example 125]	human recombinant GST cleaved CSNK1D (Homo sapiens)	pIC50	7.92
Fc1ccc(-c2nn3c(c2-c2ccnc4[nH]ncc24)C2CCC3CC2)cc1 [Example 64]	human recombinant GST cleaved CSNK1D (Homo sapiens)	pIC50	9.00
Cc1cc(-c2c(-c3ccc(F)cc3)nn3c2C2CCC3CC2)c2cn[nH]c2n1 [Example 66]	human recombinant GST cleaved CSNK1D (Homo sapiens)	pIC50	8.70

The measurements presented in this section are drawn from patent US20230339970A1.
